Target Or System: T1, cynomolgus monkey 4-1BB (cynomolgus monkey)
T1 construct: whole, on cells; also called CHO-K1-cyno 4-1BB; CHO-K1/cyno4-1BB
Method Summary: FACS, CHO-K1/cyno 4-1BB cells [E]
pEC50: −log10 of the molar value.
Measured Metric: pEC50

| Binder | Measured Metric | Value Measured |
| --- | --- | --- |
| PR001833 (antibody, human IgG1, V domains shown, anti-4-1BB HCAb, human IgG1 Fc) VH: EVQLLESGGGLVQPGGSLRLSCAASGFTFSSYAMSWVRQAPEKGLEWVSSISGSGGSTFYADSVKGRFTISRDNSKNTLYLQMNSLRAEDTAVYFCAKEGATETDDYHFNTDVWGQGTTVTVSS | pEC50 | 8.99 |
| PR001830 (antibody, human IgG1, V domains shown, anti-4-1BB HCAb, human IgG1 Fc) VH: EVQLLESGGGLVQPGGSLRLSCTASGFTFSNYAMSWVRQAPEKGLEWVSSISGSGGSTFYADSVKGRFTISRDNSKNTLYLQMNSLRAEDTAVYFCAKEGSSETDDHYYNVDVWGQGTTVTVSS | pEC50 | 9.05 |
| PR001836 (antibody, human IgG1, V domains shown, anti-4-1BB HCAb, human IgG1 Fc) VH: EVQLLESGGGLVQPGGSLRLSCAASGFIFSNFAMTWVRQPPEKGLKWVSSINGSGFNTYYTDSVKGRFTISRDNSRNTLYLQMNRLTAEDTAVYFCAKEGSSETDDHYYNVDVWGQGTTVTVSS | pEC50 | 8.62 |
| Utomilumab analog (PR000483) (antibody, human IgG2, lambda, V domains shown, anti-4-1BB control antibody; also called Tab) VH: EVQLVQSGAEVKKPGESLRISCKGSGYSFSTYWISWVRQMPGKGLEWMGKIYPGDSYTNYSPSFQGQVTISADKSISTAYLQWSSLKASDTAMYYCARGYGIFDYWGQGTLVTVSS VL: SYELTQPPSVSVSPGQTASITCSGDNIGDQYAHWYQQKPGQSPVLVIYQDKNRPSGIPERFSGSNSGNTATLTISGTQAMDEADYYCATYTGFGSLAVFGGGTKLTVLG | pEC50 | 9.31 |
